Source: patent US10392366B2

- target.or.test.system: UniProtKB Q8TDV5
- Sequence (Q8TDV5 1-335): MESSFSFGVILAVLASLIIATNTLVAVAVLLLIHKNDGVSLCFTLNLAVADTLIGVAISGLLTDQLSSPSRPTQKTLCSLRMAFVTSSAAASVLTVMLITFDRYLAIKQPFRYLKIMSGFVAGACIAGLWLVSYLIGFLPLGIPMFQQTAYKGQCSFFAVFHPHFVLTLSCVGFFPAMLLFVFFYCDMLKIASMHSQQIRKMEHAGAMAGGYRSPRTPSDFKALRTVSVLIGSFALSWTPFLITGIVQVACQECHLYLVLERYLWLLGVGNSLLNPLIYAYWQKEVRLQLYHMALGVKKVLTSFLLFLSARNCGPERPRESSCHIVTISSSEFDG
- assay.procedure: Functional cellular assay measuring GPR119-mediated cAMP release (HTRF) in HEK-293 cells stably expressing recombinant GPR119
- reported.conditions: cell line expressing human GPR119, 30 minutes at room temperature
pEC50: −log10 of the molar value.
Reported pEC50 values for a set of compounds
measurement.type: pEC50

>>> measured_value("CC(C)[S+]([O-])C1CN(c2ncc(N3CC[C@@H](Oc4ccc(OCC(F)(F)F)nc4)C3=O)cn2)C1 (single isomer, unassigned) [Compound 1-35]")
6.74
>>> measured_value("CN(C)C(=O)C1CN(c2ncc(N3CCC(Cc4ccc(OCC(F)(F)F)nc4)C3=O)cn2)C1 (single isomer, unassigned) [Compound 1-45]")
6.69
>>> measured_value("C[S+]([O-])C1CN(c2ncc(N3CC[C@@H](Oc4ccc(OCC(F)(F)F)nc4)C3=O)cn2)C1 (single isomer, unassigned) [Compound 1-24]")
6.47

* * *

Reported pEC50 values for a set of molecules
- target.or.test.system: human GPR119 (Homo sapiens, UniProt Q8TDV5)
- assay.procedure: Functional cellular assay measuring GPR119-mediated cAMP release (HTRF) in HEK-293 cells stably expressing recombinant GPR119
- reported.conditions: cell line expressing human GPR119, 30 minutes at room temperature
pEC50: −log10 of the molar value.
measurement.type: pEC50

>>> measured_value("CN(C)C(=O)C1CN(c2ncc(N3CC[C@@H](Oc4ccc(C(=O)CCC(F)(F)F)cc4)C3=O)cn2)C1")
6.91
>>> measured_value("CCNC(=O)C1CN(c2ncc(N3CC[C@@H](Oc4ccc(Oc5ccc(F)cc5)nc4)C3=O)cn2)C1")
5.39
>>> measured_value("CN(CCO)C(=O)C1CN(c2ncc(N3CC[C@@H](Oc4ccc(OCC(F)(F)F)nc4)C3=O)cn2)C1")
6.58
>>> measured_value("CN(C)C(=O)C1CN(c2ncc(N3CC[C@@H](Oc4ccc(C(=O)C5CC5)cc4)C3=O)cn2)C1")
6.66
>>> measured_value("CN(C)C(=O)C1CN(c2ncc(N3CC[C@@H](Oc4ccc(OCC(F)(F)F)nc4)C3=O)cn2)C1 [Compound 1-12]")
7.30
>>> measured_value("C[S+]([O-])C1CN(c2ncc(N3CC[C@@H](Oc4ccc(C(=O)C5CC5)cc4)C3=O)cn2)C1 (single isomer, unassigned) [Compound 1-20]")
5.71
>>> measured_value("COC(=O)CC1CN(c2ncc(N3CC[C@@H](Oc4ccc(OCC(F)(F)F)nc4)C3=O)cn2)C1")
6.48
>>> measured_value("CN(CC(N)=O)C(=O)C1CN(c2ncc(N3CC[C@@H](Oc4ccc(OCC(F)(F)F)nc4)C3=O)cn2)C1")
6.40
>>> measured_value("C[S+]([O-])C1CN(c2ncc(N3CCC(Cc4ccc(OCC(F)(F)F)nc4)C3=O)cn2)C1 (single isomer, unassigned) [Compound 1-46]")
6.39
>>> measured_value("C[S+]([O-])C1CN(c2ncc(N3CC[C@@H](Oc4ccc(OCC(F)(F)F)nc4)C3=O)cn2)C1 (single isomer, unassigned) [Compound 1-25]")
6.53
>>> measured_value("CC(C)N(C)C(=O)C1CN(c2ncc(N3CC[C@@H](Oc4ccc(OCC(F)(F)F)nc4)C3=O)cn2)C1")
7.09
>>> measured_value("CN(C)C(=O)C1CN(c2ncc(N3CC[C@@H](Oc4ccc(C(=O)C5CC5(F)F)cc4)C3=O)cn2)C1 (some centres unmarked)")
6.67
>>> measured_value("NC1CN(c2ncc(N3CC[C@@H](Oc4ccc(OCC(F)(F)F)nc4)C3=O)cn2)C1")
5.01
>>> measured_value("O=C(O)C1CN(c2ccc(N3CC[C@@H](Oc4ccc(OCC5CC5)nc4)C3=O)cn2)C1")
5.22
